test: Elimination rate constant in Wistar rat at 5 mg/kg, po; type: ADME, organism-based; set-up: dose 5 mg/kg, route oral; settings: Wistar, in vivo
Readout Kind: k el (s⁻¹)

Cc1cc(COc2ccc([C@]3(N)CCN([C@H](CC(C)C)C(=O)NO)C3=O)cc2)c2ccccc2n1 | 2.22e-05

* * *

assay: AUC in Wistar rat at 5 mg/kg, po; assay type: ADME, organism-based; design: dose 5 mg/kg, route oral; settings: plasma
Readout Kind: AUC

Cc1cc(COc2ccc([C@]3(N)CCN([C@H](CC(C)C)C(=O)NO)C3=O)cc2)c2ccccc2n1 | 5.97 µg·h/mL
COCCc1cc(COc2ccc([C@]3(N)CCN([C@H](CC(C)C)C(=O)NO)C3=O)cc2)c2ccccc2n1 | 11.8 µg·h/mL
